B1: Osa-1-4 twister ribozyme (parent)
chain: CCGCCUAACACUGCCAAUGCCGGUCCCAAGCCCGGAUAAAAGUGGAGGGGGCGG

variants of: B1; test: self-cleavage, relative activity (ratio to wild type); higher = more cleavage; co-transcriptional
Label criterion not met if self-cleavage falls below 0.07; label criterion met in every other case.

>  <Biosequence>
CCGCCUAACACUGCCAAUGCCGGUCCCAAGGCCGGAUAAAAGUGGUGGGGGCGG [A46U C31G]

>  <Class label>
criterion not met

$$$$

Prompt: Does CCGCCUAACACUGCCAACGCCGGUCCCAGGCCCGGAUAAAAGUGGAGGGGGCGG [A29G U18C] have a reported self-cleavage of at least 0.07?
Completion: criterion met

Prompt: Does CCGCCUACCACUGCCAAUGCCGGUCCCAAACCCGGAUAAAAGUGGAGGGGGCGG [A8C G30A] have a reported self-cleavage of at least 0.07?
Completion: criterion not met

Prompt: Does CCGCCUAAAACUGCCAAUGCCGGUCCCAAGCGCGGAUAAAAGUGGAGGGGGCGG [C32G C9A] have a reported self-cleavage of at least 0.07?
Completion: criterion not met

Prompt: Does CCGCCUAACACUGCCAAUACCGGUCCCAAGACCGGAUAAAAGUGGAGGGGGCGG [C31A G19A] have a reported self-cleavage of at least 0.07?
Completion: criterion not met

Prompt: Does CCGCCUAAAACUGCCAAUGCCGGUCCCAGGCCCGGAUAAAAGUGGAGGGGGCGG [A29G C9A] have a reported self-cleavage of at least 0.07?
Completion: criterion not met

Prompt: Does CCGCCUAACACUGCCAAUGCCGGUCCCAGGCCCGGAUAAAAGUGUAGGGGGCGG [A29G G45U] have a reported self-cleavage of at least 0.07?
Completion: criterion not met

Prompt: Does CCGCCUAACACUGCCAAUGCCGGUCCCAAGCCGGGAAAAAAGUGGAGGGGGCGG [C33G U37A] have a reported self-cleavage of at least 0.07?
Completion: criterion met

Prompt: Does CCGCCUAACACUGCCAAUGCCGGUCCCAAGCCCGGAGAAAAGCGGAGGGGGCGG [U37G U43C] have a reported self-cleavage of at least 0.07?
Completion: criterion met

Prompt: Does CCGCCUAACACUGCCAAUGCCGGUCCCAAGCCCGGACAAAAGUAGAGGGGGCGG [G44A U37C] have a reported self-cleavage of at least 0.07?
Completion: criterion met

Prompt: Does CCGCCUAACACGGCAAAUGCCGGUCCCAAGCCCGGAUAAAAGUGGAGGGGGCGG [C15A U12G] have a reported self-cleavage of at least 0.07?
Completion: criterion met

Prompt: Does CCGCCUAACACUGCCAAUGCCGGUCCCAACCCCGGAUAAAAGUGGAGGGGUCGG [G30C G51U] have a reported self-cleavage of at least 0.07?
Completion: criterion not met

Prompt: Does CCGCCUAACACUGCCUAUGCCGGUCCCUAGCCCGGAUAAAAGUGGAGGGGGCGG [A16U A28U] have a reported self-cleavage of at least 0.07?
Completion: criterion met

Prompt: Does CCGCCUAACCCUUCCAAUGCCGGUCCCAAGCCCGGAUAAAAGUGGAGGGGGCGG [A10C G13U] have a reported self-cleavage of at least 0.07?
Completion: criterion not met

Prompt: Does CCGCCUAACACUGCCAAAGCCGGUCCCAAGCCCGGUUAAAAGUGGAGGGGGCGG [A36U U18A] have a reported self-cleavage of at least 0.07?
Completion: criterion met

Prompt: Does CCGCCUAACACUGCCAAUGCCGGUCCCCAGCCCGGAUAAAAGUGGAGGGGGCCG [A28C G53C] have a reported self-cleavage of at least 0.07?
Completion: criterion met

Prompt: Does CCGCCUAACAUUGCCAAUGCCGGUCCCGAGCCCGGAUAAAAGUGGAGGGGGCGG [A28G C11U] have a reported self-cleavage of at least 0.07?
Completion: criterion met

Prompt: Does CCGCCUAACACUGCCAAUGCCGGUCCCAUGCCCGCAUAAAAGUGGAGGGGGCGG [A29U G35C] have a reported self-cleavage of at least 0.07?
Completion: criterion not met

Prompt: Does CCGCCUAACAUUGCCAAUGCCGGUCCCAAGCCCGGAUAAAAGUGGUGGGGGCGG [A46U C11U] have a reported self-cleavage of at least 0.07?
Completion: criterion met
